# target.desc: HLA-DRB1*0301 (human)
# test.name: competition binding
# run.parameters: modification not given
parameter.measured: IC50 (µM)
State just the number; it will be interpreted in µM.

Q: Give the reported value of IC50 for this record: KDYIALKEDLRSWTA [p25]
A: 1.63

Q: Give the reported value of IC50 for this record: HQYAYDGKDYIALKE [p23]
A: 52

Q: Give the reported value of IC50 for this record: HSMRYFFTSVSRPGR [p1*]
A: 7.35
